Tested on: L1210 leukemia ip in BDF1 mice, survival T/C
Test description: NCI In Vivo Anticancer Drug Screen. Data for tumor model L1210 Leukemia (intraperitoneal) in B6D2F1 (BDF1) mice
Experimental parameters: endpoint: mean survival time; dose: 50.0 mg/kg/injection; schedule: Q04DX002 (ip); vehicle: saline; higher = longer survival
Inconclusive results and toxic doses are left out. Square brackets hold non-standard residues; d marks the D form. Peptide text beside a SMILES is read from it. ξ: configuration not given here. ξE = NC(CCC(=O)O)C(=O)O
# Lookup of reported T/C keyed by entry

Known T/C results, listed for orientation:
Compound	Value reported
NCC(=O)NC(CCC(=O)O)C(=O)O (configuration not stated) (H-Gly-[ξE]-OH)	89 % of control
CC1(CBr)OCCCO1	93 % of control
S=P(c1ccccc1)(c1ccccc1)c1ccccc1	96 % of control
NC(=O)NNC(=O)C(Cl)(Cl)Cl	99 % of control
CNc1ncnc2nn(C)c(C#N)c12	106 % of control
CCSC(SCC)C(N)C(O)C(O)C(O)CO (configuration not stated)	103 % of control

API: the following record is the query input.
Request: // T/C lookup, key: NCC1=NCCN1
Response: 97 % of control

* * *

System: L1210 leukemia ip in BDF1 mice, survival T/C
Test description: NCI In Vivo Anticancer Drug Screen. Data for tumor model L1210 Leukemia (intraperitoneal) in B6D2F1 (BDF1) mice
Experimental parameters: endpoint: mean survival time; dose: 100.0 mg/kg/injection; schedule: Q01DX005 (ip); vehicle: saline
Experimental: The antitumor activity of compounds was measured in mice bearing transplantable tumors. Survival or tumor size were measured and the results are expressed as the measurement made in the treated group (T) divided by the measurement made in the vehicle treated control group (C). The tumor model used in this assay is L1210 Leukemia (intraperitoneal) in B6D2F1 (BDF1) mice
Toxic doses and inconclusive results are not listed. No stated cut-off is given here; in the data, active means T/C of 150% or more; inactive means T/C below 125%. Square brackets hold non-standard residues; d marks the D form. Peptide text beside a SMILES is read from it. * marks the point of attachment. Tos = Cc1ccc(S(=O)(=O)*)cc1; ΔPro = O=C(O)[CH]1C=CCN1
Entry note: the call must match one of class 1 (active), class 0 (inactive)

Known results for compounds:
Compound	Tested on	Assigned label
COC(=O)C1C=CCN1C(=O)C(Cc1ccccc1)NS(=O)(=O)c1ccc(C)cc1 (stereo not drawn) (Tos-Phe-[ΔPro]-OMe; configuration not given here)	L1210 leukemia ip in BDF1 mice, survival T/C	class 0
C=CCOP1(=O)OCC2OC(n3cnc4c(N)ncnc43)C(O)C2O1 (centres undefined)	L1210 leukemia ip in BDF1 mice, survival T/C	class 0
COC(=O)CNC(=O)C(Cc1ccc(O)cc1)NC(=O)OC(C)(C)C (centres undefined)	L1210 leukemia ip in BDF1 mice, survival T/C	class 0

Turning to the following compound.
Request: Please let me know the test result on file for NC(=S)c1cn(C2OC(CO)C(O)C2O)c2ncncc12 (centres undefined) .
Response: class 1

* * *

List of T/C values.
Tested on: L1210 leukemia ip in BDF1 mice, survival T/C
Test description: NCI In Vivo Anticancer Drug Screen. Data for tumor model L1210 Leukemia (intraperitoneal) in B6D2F1 (BDF1) mice
Experimental parameters: endpoint: mean survival time; dose: 30.0 mg/kg/injection; schedule: Q01DX Z (ip); vehicle: methylcellulose (MC); higher = longer survival
Inconclusive results and toxic doses are left out.

Below are worked cases with known answers.
O=C(Nc1ccc(C(=O)Nc2ccc(C3=NCCN3)cc2)cc1)Nc1ccc(C(=O)Nc2ccc(C3=NCCN3)cc2)cc1 103 % of control
CN(C)CC/C(=N\N=C(N)N)c1ccccc1 90 % of control
CN(C)CCCN1c2ccccc2Sc2ccc(Cl)cc21 117 % of control
N/C(=N/N=C/c1cc(Cl)ccc1O)N/N=C\c1cc(Cl)ccc1O 104 % of control

Continue with the next molecule.
Request: Need T/C of CN=C(NC)N(C)/N=C/C(C)=N/N(C)C(=NC)NC , thanks.
Response: 101 % of control
